TARGET DESC: Bt-SARS-CoV-2 Spike Protein (RBD)(R319-F541).hFc (SARS-CoV-2)
SETUP CONDITIONS: remark: other sources report otherwise
What Binding signal (MFI) was measured for each of the following?
One number for each entry, in MFI.

Below, 3 binders whose answers are already recorded.
Qu. Consider the binder mAb11008 (antibody, V domains shown) VH: EVQLVESGGGLVQPGGSLRLSCAASGFTVSSNYMTWVRQAPGKGLEWVSVIYSGGSTFYADSVKGRFTISRHNSENTLYLQMNSLRAEDTAVYYCARDLAAAGTDYWGQGALVTVSS VL: DIQLTQSPSFLSASVGDRVTITCWASQGISSYLAWYQQKPGKAPKLLIYAASTLQSGVPSRFSGSGSGTEFTLTISSLQPDDFATYYCQHLNSYLYTFGQGTKLEIK and give its recorded Binding signal (MFI).
Ans. 4110

Qu. Consider the binder mAb11006 (antibody, V domains shown) VH: EVQLVESGGGLVQPGGSLRLSCAASGFIVSRNYMSWVRQAPGKGLEWVSVIYSGGSTFYADSVKGRFTISRHNSKNTLYLQMNSLKAEDTAVYYCARELRGYFDYWGQGTLVTVSS VL: DIQLTQSPSFLSASVGDRVTITCWASQGISSYLAWYQQKPGKAPKLLIYAASTLQSGVPSRFSGSGSGTEFTLTISSLQPEDFATYYCQLLNSYPYTFGQGTKLEIK and give its recorded Binding signal (MFI).
Ans. 3810

Qu. Consider the binder mAb10998 (antibody, V domains shown) VH: EVQLVESGGGLVHPGGSLRLSCAASGLTVSSNYMSWVRQAPGKGLEWVSVIYSGGSTYYADSVKGRFTISRHNSKNTLFLQMNSLRAEDTAVYYCARDRPITGTTLDVWGQGTTVTVSS VL: DIQMTQSPSSLFASVGDRVTITCRASQSISSYLNWYQQKPGKAPKLLIYAASSLQSGVPSRFSGSGSGTDFTLTISSLQPEDFAFYYCQQTYSTPPITFGQGTRLEIK and give its recorded Binding signal (MFI).
Ans. 467

We next turn to a different binder, shown below.
Qu. Consider the binder mAb11004 (antibody, V domains shown) VH: QVQLVESGGGVVQPGRSLRLSCVASGFTFSIYGMDWVRQAPGKGLEWVAVISYDGSNKYYADSVKGRFTISRDNSKNTLYLQMNSLRPEDTAVYYCAKDREAAADAFDIWGQGTMVTVSS VL: DIQMTQSPSSVSASVGDRVTITCRASQGISSWLAWYQQKPGKAPKLLIYAASSLHSGVPSRFSGSGSGTDFTLTISSLQPEDFATYYCQQANSFRLTFGGGTKVEIK and give its recorded Binding signal (MFI).
Ans. 7620

Where these numbers come from: patent US20220356230A1
